Molecular target: Aβ pathological aggregates present in the human AD insoluble fractions (Homo sapiens)
Construct: "4.7 g of frontal lobe tissue from post-mortem brain of one Alzheimer's disease (AD) patient"
Sequence (P05067 whole entry): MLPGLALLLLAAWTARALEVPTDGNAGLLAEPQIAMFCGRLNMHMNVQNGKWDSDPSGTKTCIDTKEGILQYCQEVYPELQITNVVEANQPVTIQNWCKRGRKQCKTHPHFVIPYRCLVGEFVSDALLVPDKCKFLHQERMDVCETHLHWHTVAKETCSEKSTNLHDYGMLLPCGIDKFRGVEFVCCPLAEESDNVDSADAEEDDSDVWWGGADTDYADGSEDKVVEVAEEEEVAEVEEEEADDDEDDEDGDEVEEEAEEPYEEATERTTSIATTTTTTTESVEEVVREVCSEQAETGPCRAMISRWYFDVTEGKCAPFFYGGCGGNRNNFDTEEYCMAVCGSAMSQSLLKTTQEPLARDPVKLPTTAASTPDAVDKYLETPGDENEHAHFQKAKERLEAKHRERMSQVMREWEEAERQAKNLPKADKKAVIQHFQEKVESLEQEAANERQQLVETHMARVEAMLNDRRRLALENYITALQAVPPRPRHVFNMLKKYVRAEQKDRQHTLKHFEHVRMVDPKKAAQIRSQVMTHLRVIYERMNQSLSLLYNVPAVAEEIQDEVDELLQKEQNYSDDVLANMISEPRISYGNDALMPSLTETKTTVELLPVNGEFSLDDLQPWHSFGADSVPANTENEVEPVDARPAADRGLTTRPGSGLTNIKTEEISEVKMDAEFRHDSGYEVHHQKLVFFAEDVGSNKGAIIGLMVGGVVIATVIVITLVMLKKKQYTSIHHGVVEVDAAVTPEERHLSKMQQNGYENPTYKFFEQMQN
Assay: Radio-binding competition assay on human AD insoluble fraction
Details: measurement C; radioligand [3H] Example 47 of WO2017/153601 at 7 nM; read-out: Ki on human AD-Insoluble Fraction, measurement C
readout kind: Ki

Sample records with Ki:
Query block: Which measured Ki value corresponds to CN1CCN(c2ccc3nc(-c4ccc(N5CC[C@H](F)C5)nc4)sc3c2)C(=O)C1 [Example 71 of WO2017/153601, reference compound] ?
Result block: > 500 nM

Query block: Name the recorded Ki for CN1CCN(c2ccc3nc(-c4ccc(N5CC[C@@H](F)C5)nc4)sc3c2)C(=O)C1 [Example 70 of WO2017/153601, reference compound] .
Result block: > 500 nM

--- query ---
Query block: Reported Ki for "CNc1ncc(-c2nc3cnc(N4CCN(C)CC4=O)cc3s2)cc1F" : what is it?
Result block: 50 to 500 nM
